# System: SKBR3 (PI3Kα-Wild Type) cell line
# protocolSummary: HTRF phospho-AKT(S473) cell assay in SKBR3 cells
# Type: cell-based, human
# experimentalParameters: Homo sapiens, SK-BR-3; SKBR3 (PI3Kα-Wild Type) cells, HTRF phospho-AKT(S473), 2 hours compound incubation, PDGF-BB stimulated
readoutLabel: IC50

Consider the reported IC50 for these compounds:
Cc1cc([C@@H](C)Nc2ccc(Cl)nc2C(=O)NS(C)(=O)=O)c2nc(N3CCN(c4cnn(C)c4)CC3)n(C)c(=O)c2c1 [Compound 188]
1 to 5 µM
Cc1cc([C@@H](C)Nc2ccc(Cl)nc2C(=O)NS(C)(=O)=O)c2nc(N3CCC[C@@H](Oc4cnc(C)cn4)C3)n(C)c(=O)c2c1 [Compound 376]
≥ 5 µM
Cc1cc([C@@H](C)Nc2ccc(Cl)nc2C(=O)NS(C)(=O)=O)c2nc(N3C[C@H]4C[C@@H]3CN4c3cnn(C)c3)n(C)c(=O)c2c1 [Compound 233]
1 to 5 µM
Cc1cc2c(=O)n(C)c(N3Cc4ccc(F)cc4C3)nc2c([C@@H](C)Nc2ccc(Cl)nc2C(=O)NS(C)(=O)=O)n1 [Compound 72]
1 to 5 µM

Moving on to another compound below.
Fill in: IC50 of Cc1cc([C@@H](C)Nc2ccc(Cl)nc2C(=O)NS(C)(=O)=O)c2nc(N3C[C@@H]4[C@@H](COc5ccnn5C)[C@@H]4C3)n(C)c(=O)c2c1 [Compound 341] is ___ 1 to 5 µM
